This listing pairs binders with measured pKi.
- System: T1, pKal catalytic domain Mutant 1 (human, UniProt P03952 391-638, limits assumed)
- T1 construct: domain: catalytic domain; Expressed in Pichia pastoris, purified by IMAC; not shown: His tag fusion
- T1 sequence (P03952 other isoform, or with tags, fused parts or gaps mutant limits assumed): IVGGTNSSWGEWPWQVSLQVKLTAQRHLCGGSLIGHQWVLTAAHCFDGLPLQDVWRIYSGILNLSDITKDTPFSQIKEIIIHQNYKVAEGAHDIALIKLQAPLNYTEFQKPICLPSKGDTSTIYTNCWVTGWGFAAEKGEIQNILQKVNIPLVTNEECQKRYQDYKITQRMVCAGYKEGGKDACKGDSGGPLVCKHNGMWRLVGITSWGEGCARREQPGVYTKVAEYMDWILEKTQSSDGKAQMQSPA
- Assay Remarks: apparent Ki (Ki,app), enzyme inhibition, pKal catalytic domain Mutant 1
pKi: −log10 of the molar value.

# Binder, pKi
data = [
    ("M29-D09 (Fab, V domains shown, also called 559A-M29-D09 (sFab); 559A-M0029-D09) VH: EVQLLESGGGLVQPGGSLRLSCAASGFTFSWYTMVWVRQAPGKGLEWVSYIYPSGGATFYADSVKGRFTISRDNSKNTLYLQMNSLRAEDTAVYYCAMGSYDYIWGFYSDHWGQGTLVTVSS VL: QSALTQPPTVSVSPGQTARITCSGNKLGDKYVAWYQQKPGQSPMLVIYQDTKRPSRVSERFSGSNSANTATLSISGTQALDEADYYCQAWDSSIVIFGGGTRLTVL", 9.57),
    ("M35-G04 (antibody, V domains shown, also called 559A-M35-G04; 559A-M0035-G04) VH: EVQLLESGGGLVQPGGSLRLSCAASGFTFSYYHMSWVRQAPGKGLEWVSVISPSGGSTKYADSVKGRFTISRDNSKNTLYLQMNSLRAEDTAVYYCARGGSSDYAWGSYRRPYYFDYWGQGTLVTVSS VL: DIQMTQSPATLSLSPGERATLSCRASQSVSSYLAWYQQKPGQAPRLLIYDASNRATGIPARFSGSGSGTDFTLTISSLEPEDFAVYYCQQRSNWPRGFTFGPGTKVDIK", 10.05),
    ("X115-D01 (antibody, V domains shown, also called 559A-X115-D01; 559A-X0115-D01) VH: EVQLLESGGGLVQPGGSLRLSCAASGFTFSIYSMHWVRQAPGKGLEWVSSIYPSRGMTWYADSVKGRFTISRDNSKNTLYLQMNSLRAEDTAVYYCAYRRTGIPRRDAFDIWGQGTMVTVSS VL: DIQMTQSPSTLSASVGDRVTITCRASQSISSWLAWYQQKPGKAPKLLIYKASTLESGVPSRFSGSGSGTEFTLTISSLQPDDFATYYCQQYNTYWTFGQGTKVEIK", 9.59),
    ("X115-G04 (antibody, V domains shown, also called 559A-X115-G04; 559A-X0115-G04) VH: EVQLLESGGGLVQPGGSLRLSCAASGFTFSHYIMMWVRQAPGKGLEWVSGIYSSGGITVYADSVKGRFTISRDNSKNTLYLQMNSLRAEDTAVYYCAYRRTGVPRRDEFDIWGQGTMVTVSS VL: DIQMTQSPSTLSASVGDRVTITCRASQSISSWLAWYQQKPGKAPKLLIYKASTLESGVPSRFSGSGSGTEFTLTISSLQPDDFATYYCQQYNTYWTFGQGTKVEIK", 9.40),
]
